- Tgt: human growth hormone (Homo sapiens, UniProt P01241)
- Construct: purchased National Institute of Biological Standards and Control; further samples on prescription from a GP surgery
- Sequence (P01241 27-217): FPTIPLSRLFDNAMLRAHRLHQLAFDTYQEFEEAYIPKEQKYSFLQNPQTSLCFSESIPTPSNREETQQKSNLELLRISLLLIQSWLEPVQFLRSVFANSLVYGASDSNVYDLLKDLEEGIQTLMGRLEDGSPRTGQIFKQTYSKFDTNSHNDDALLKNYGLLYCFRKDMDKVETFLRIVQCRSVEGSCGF
- Measurement Protocol: Recovery of structural integrity of human growth hormone in dry formulations following gamma irradiation (HPLC)
- Format: physicochemical
- Experimental Setup: Table 4, prior-art antioxidants, structural integrity by HPLC, human growth hormone 2.5 mg mL^−1 prior to drying, 25-40 kGy, ambient temperature
Where a SMILES comes first, the peptide text is derived from it.
Observable: Structural integrity remaining after gamma-irradiation (HPLC) (%)
Hi! Could you send only the number? It should be in %, unit omitted.

NCC(=O)NCC(=O)O [Glycylglycine] (H-Gly-Gly-OH)	47.2

human growth hormone (Homo sapiens, UniProt P01241) / Structural integrity remaining after gamma-irradiation (HPLC) / Oc1nc(O)c2nc(O)[nH]c2n1 [Urate] : value?
61.5

human growth hormone (Homo sapiens, UniProt P01241) / Structural integrity remaining after gamma-irradiation (HPLC) / CSCC[C@H](N)C(=O)O : value?
69.7

human growth hormone (Homo sapiens, UniProt P01241) / Structural integrity remaining after gamma-irradiation (HPLC) / Cc1c(C)c2c(c(C)c1O)CCC(C)(C(=O)O)O2 (stereo not shown) : value?
49.6

Where these numbers come from: patent US20100029542A1
